Method: Pharmacokinetics of probe substrates in rats with or without poziotinib pre-treatment
Run Parameters: male, Sprague-Dawley, rat, in vivo, po, AUC(0–t), Control group: oral probe cocktail only (10 mg/kg; tolbutamide 1 mg/kg), rats, n = 6
Readout Kind: AUC(0-t) (ng·h/mL)
Numbers only, in ng·h/mL.

**Q:** What value of AUC(0-t) has been recorded for this entry: "COc1ccc2c(c1)[C@]13CCCC[C@@H]1[C@H](C2)N(C)CC3"
**A:** 575

====

Method: Pharmacokinetics of probe substrates in rats with or without poziotinib pre-treatment
Run Parameters: male, Sprague-Dawley, rat, in vivo, po, 10 mg/kg, t1/2z, Control group: oral probe cocktail only (10 mg/kg; tolbutamide 1 mg/kg), rats, n = 6
Readout Kind: half-life (min)
Answers are plain numbers, in min.

**Q:** Can you look up the measured half-life of Cc1ncc2n1-c1ccc(Cl)cc1C(c1ccccc1F)=NC2 [Midazolam] for me?
**A:** 102
